The following variants are listed with their measured protein stability index values.
B1: TRAF3IP2 (parent)
chain: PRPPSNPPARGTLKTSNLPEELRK

- Variants of: B1
- protocol_details: protein stability index of a GFP-peptide fusion (GPS, HEK-293T) (PSI 1-6); higher = more stable;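 also: lentivirally expressed fusions sorted by FACS into six bins by GFP to DsRed ratio, PSI derived from sequencing read proportions per bin multiplied by bin number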
- experimental_setup: c terminus: a fixed tail appended

sequence	protein stability index
PRPPSNPPARGTLKTSNLPESLRK [E21S]	3.97
PRPPSNPPARGYLKTSNLPEELRK [T12Y]	4.78
PQPPSNPPARGTLKTSNLPEELRK [R2Q]	4.59
PRPPSNPPARGTLKTSNAPEELRK [L18A]	4.92
PRPPSNPPARGTHKTSNLPEELRK [L13H]	4.36
PRPPSNPPARGTLKFSNLPEELRK [T15F]	4.29
PRPPSNPPARGTLKTSCLPEELRK [N17C]	4.29
PRPPSNPPARGTLKTSNLPEELRL [K24L]	4.31
PRPPSNPPARGTLKTSNLPGELRK [E20G]	5.51
PRPPSNPPYRGTLKTSNLPEELRK [A9Y]	4.5
HRPPSNPPARGTLKTSNLPEELRK [P1H]	4.64
PRPPSNPPARYTLKTSNLPEELRK [G11Y]	4.28
PRPPSNPSARGTLKTSNLPEELRK [P8S]	4.8
PRPPSNPPARGTLKTSNLPPELRK [E20P]	4.21
PRPPSNPFARGTLKTSNLPEELRK [P8F]	4.43
PRPPSNPPARGTLKTSNLPEKLRK [E21K]	4.26
PRPPSNPPAMGTLKTSNLPEELRK [R10M]	4.64
PRPPSNPPARGWLKTSNLPEELRK [T12W]	3.65
PRPISNPPARGTLKTSNLPEELRK [P4I]	4.66
PGPPSNPPARGTLKTSNLPEELRK [R2G]	5.12
PRPPSNPPARGRLKTSNLPEELRK [T12R]	4.58
PRPPSNPPARWTLKTSNLPEELRK [G11W]	3.54
PRPPSWPPARGTLKTSNLPEELRK [N6W]	5.83
PRPPSRPPARGTLKTSNLPEELRK [N6R]	4.49
PRPPSNPNARGTLKTSNLPEELRK [P8N]	4.82
PRPPSNPPARGTLKTSNLLEELRK [P19L]	4.43
PRPPSNPPARGTLKTHNLPEELRK [S16H]	4.33
PRPPSNPQARGTLKTSNLPEELRK [P8Q]	5.09
PRPPSNPPARGTLKTSNLPEENRK [L22N]	4.93
PRPPSNDPARGTLKTSNLPEELRK [P7D]	4.97
